Listed molecules paired with reported inhibition
assay: YAP1 pathway inhibitors via CTGF transcript, primary screen, DLD1 colon cancer cells, RT-qPCR, single point (AID 743449); conditions: DLD1 CTGF mRNA qPCR, 24 h; at 12.5 µM; active compounds read high;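 also: 0% = neutral control wells and 100% = dasatinib control wells; higher means stronger suppression of CTGF expression like dasatinib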
Out of some 9,900 compounds screened, about 90 (0.9%) were called active. Another 2% or so got no clear call; they are omitted. Only a selection was taken, and actives are over-represented in it overall.
Your answer should be a plain number; it is taken to be in %.

{"columns": ["STRUCTURE SMILES STRING", "inhibition (%)"],
 "data": [
  ["COc1cccc(NC(=O)N2C[C@H](O)COC[C@H]3O[C@H](CC(=O)N(C)C)CC[C@@H]32)c1", -3.69]
]}

Lookup: If you can, please state the reported inhibition value of Cc1ccc(S(=O)(=O)N2CC[C@@H]3[C@H]2c2cc(-c4cccc(C(=O)N(C)C)c4)ccc2N[C@@H]3CO)cc1 .
Found: 68.4

Lookup: Moving on to COCC(=O)Nc1ccc2c(c1)[C@H]1C[C@@H](CC(=O)N3CCOCC3)O[C@H](CO)[C@H]1O2
Found: -2.81

Lookup: Moving on to N#Cc1cccc(-c2ccc3c(c2)[C@@H]2[C@@H](CCN2S(=O)(=O)c2ccc(F)cc2)[C@H](CO)N3)c1
Found: 63

Lookup: Moving on to COc1ccccc1S(=O)(=O)N1CC[C@@H]2[C@@H](CO)N(C)c3ccc(-c4cccc(C#N)c4)cc3[C@@H]21
Found: 32

Ref: PubChem BioAssay AID743449
